- targetUnderTest: recombinant human PI3Kα (6-His(p110-p85α)) (Homo sapiens (Human), UniProt P42336)
- Sequence (P42336 whole entry): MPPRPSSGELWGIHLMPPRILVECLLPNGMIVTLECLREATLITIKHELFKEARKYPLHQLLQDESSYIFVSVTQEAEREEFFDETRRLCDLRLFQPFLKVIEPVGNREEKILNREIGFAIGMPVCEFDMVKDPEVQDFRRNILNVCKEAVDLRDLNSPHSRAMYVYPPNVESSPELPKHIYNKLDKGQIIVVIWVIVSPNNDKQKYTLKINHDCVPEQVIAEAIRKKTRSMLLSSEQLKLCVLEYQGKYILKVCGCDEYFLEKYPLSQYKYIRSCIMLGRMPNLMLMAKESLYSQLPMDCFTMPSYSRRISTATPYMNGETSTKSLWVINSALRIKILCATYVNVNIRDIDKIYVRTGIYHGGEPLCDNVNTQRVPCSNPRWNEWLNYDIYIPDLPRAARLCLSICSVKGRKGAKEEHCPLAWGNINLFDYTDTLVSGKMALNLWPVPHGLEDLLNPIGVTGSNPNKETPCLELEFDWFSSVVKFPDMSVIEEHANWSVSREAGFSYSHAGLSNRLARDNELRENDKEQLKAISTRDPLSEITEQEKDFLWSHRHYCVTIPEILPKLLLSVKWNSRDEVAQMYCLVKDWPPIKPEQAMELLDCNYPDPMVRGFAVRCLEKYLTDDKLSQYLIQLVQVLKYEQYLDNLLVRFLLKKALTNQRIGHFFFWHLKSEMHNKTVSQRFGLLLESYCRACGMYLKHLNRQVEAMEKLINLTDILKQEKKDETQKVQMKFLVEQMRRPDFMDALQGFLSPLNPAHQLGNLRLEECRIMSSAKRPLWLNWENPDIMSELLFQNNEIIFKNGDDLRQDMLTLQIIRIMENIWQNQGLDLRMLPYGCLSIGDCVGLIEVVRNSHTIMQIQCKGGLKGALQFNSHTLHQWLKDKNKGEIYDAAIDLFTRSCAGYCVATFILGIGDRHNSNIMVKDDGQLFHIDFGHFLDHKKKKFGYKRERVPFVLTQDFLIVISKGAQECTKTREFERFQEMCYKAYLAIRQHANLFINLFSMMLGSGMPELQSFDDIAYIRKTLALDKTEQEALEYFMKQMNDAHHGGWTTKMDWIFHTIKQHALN
- Sequence (P27986 whole entry partner): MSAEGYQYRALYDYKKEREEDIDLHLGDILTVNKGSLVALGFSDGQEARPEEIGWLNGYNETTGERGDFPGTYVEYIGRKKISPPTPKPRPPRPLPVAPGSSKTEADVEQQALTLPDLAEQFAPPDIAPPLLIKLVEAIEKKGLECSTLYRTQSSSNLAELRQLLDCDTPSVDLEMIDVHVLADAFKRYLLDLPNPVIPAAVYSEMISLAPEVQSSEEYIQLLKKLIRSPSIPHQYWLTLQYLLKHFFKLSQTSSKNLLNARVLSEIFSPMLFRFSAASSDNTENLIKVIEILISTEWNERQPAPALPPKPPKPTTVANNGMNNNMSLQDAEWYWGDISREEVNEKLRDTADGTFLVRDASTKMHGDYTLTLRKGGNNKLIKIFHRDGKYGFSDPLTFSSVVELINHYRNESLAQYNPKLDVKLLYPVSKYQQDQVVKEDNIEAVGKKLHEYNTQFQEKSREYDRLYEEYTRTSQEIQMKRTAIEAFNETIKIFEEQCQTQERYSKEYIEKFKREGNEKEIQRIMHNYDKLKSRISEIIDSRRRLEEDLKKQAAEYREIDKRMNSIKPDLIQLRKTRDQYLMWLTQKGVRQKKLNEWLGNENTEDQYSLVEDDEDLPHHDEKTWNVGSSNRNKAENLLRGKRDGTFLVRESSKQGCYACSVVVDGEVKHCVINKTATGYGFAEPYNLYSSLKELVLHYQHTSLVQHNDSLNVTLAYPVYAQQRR
- experiment: Enzymatic activity assay for recombinant human PI3Kα (ADP-Glo)
- experimentalSetup: 1.2 nM PI3Kα, 20 μM ATP, 80 μM DiC8-PIP2, ADP-Glo
Task for the reader: assign each of the following compounds its reported IC50.
Give the value in µM but do not write µM after it.

Record summary for `Cc1nc(Nc2cccc(N3CCNC3=O)n2)sc1-c1cc2c(c(S(C)(=O)=O)c1)C(=O)N([C@@H](C)C1CC1)C2` : reported IC50 = 0.023

// `CNS(=O)(=O)c1cc(-c2sc(Nc3cccc(N4CCNCCC4=O)n3)nc2C)cc2c1C(=O)N([C@@H](C)C1CC1)C2` : IC50 value = 0.064

Query `Cc1nc(Nc2cccc(N3CCCOC3=O)n2)sc1-c1cc2c(c(S(=O)(=O)NC(C)C)c1)C(=O)N([C@@H](C)C(F)(F)F)C2` yields IC50 of 0.047

Kindly note the recorded IC50 for `Cc1nc(Nc2cccc(N3CC[C@H](O)C3=O)n2)sc1-c1cc2c(c(S(=O)(=O)NC(C)C)c1)C(=O)N([C@@H](C)C(F)(F)F)C2` , which is 0.057

Looking up `Cc1nc(Nc2cccc(N3CCNC3=O)n2)sc1-c1cc2c(c(S(=O)(=O)NC3COC3)c1)C(=O)N([C@@H](C)C1CC1)C2` , I see its IC50 listed as 0.03

GET /value?item= `Cc1nc(Nc2cccc(N3CCCOC3=O)n2)sc1-c1cc2c(c(S(=O)(=O)NC3COC3)c1)C(=O)N([C@@H](C)C1CC1)C2` &field=IC50 returns 0.053

FYI, the data here is from patent US10961236B2.
